# system: Tyrosine-protein kinase Lck (Bos taurus)
# methodDescription: Ability to inhibit protein-tyrosine kinase activity of p56lck (isolated from bovine thymus) in vitro.
observedProperty: IC50

# annotated cases, reported IC50 shown
| molecule | IC50 |
| --- | --- |
| O=C(O)c1c(-c2ccc(O)cc2)oc2ccccc2c1=O | 1.59 mM |
| O=c1cc(-c2ccc([N+](=O)[O-])cc2)oc2ccc(O)cc12 | > 2 mM |
| COC(=O)CC(=O)c1ccc(O)c(O)c1O | > 2 mM |
| COC(=O)c1c(-c2ccc(NC(C)=O)cc2)oc2ccc(OC)cc2c1=O | > 2 mM |
| COC(=O)c1c(-c2ccc([N+](=O)[O-])cc2)oc2cc(OCc3ccccc3)cc(OCc3ccccc3)c2c1=O | > 2 mM |
| COC(=O)c1c(-c2ccc(Br)cc2)oc2ccccc2c1=O | > 2 mM |
| COc1cc(-c2cc(=O)c3ccccc3o2)cc(OC)c1O [3',5'-dimethoxy-4'-hydroxyflavone] | 0.026 mM |
| O=C(O)c1c(-c2ccc([N+](=O)[O-])cc2)oc2ccccc2c1=O | > 2 mM |
| CCOC(=O)CC(=O)c1c(O)cc(OCc2ccccc2)cc1OCc1ccccc1 | > 2 mM |
| O=C(O)c1c(-c2ccc([N+](=O)[O-])cc2)oc2cc(O)cc(=O)c-2c1O | > 2 mM |

Prompt line: Assign IC50 to the following record: `COC(=O)c1c(-c2ccc(O)cc2)oc2ccccc2c1=O`
Response line: 0.439 mM

Prompt line: State its IC50: `COC(=O)CC(=O)c1ccc(OC)cc1O`
Response line: 1.16 mM

Prompt line: // fetch IC50 given entry `COC(=O)c1c(-c2ccc([N+](=O)[O-])cc2)oc2ccccc2c1=O`
Response line: > 2 mM

Prompt line: In one line, give reported IC50 of the entry `COC(=O)c1c(-c2ccc(NC(=O)c3cc(OC)c(OC)c(OC)c3)cc2)oc2ccccc2c1=O` .
Response line: > 2 mM

Prompt line: Complete the entry with IC50 for `COC(=O)c1c(-c2cc(OC)c(OC)c(OC)c2)oc2ccccc2c1=O`
Response line: > 2 mM

Prompt line: In one line, give reported IC50 of the entry `COc1ccc2c(=O)c(C(=O)O)c(-c3ccc([N+](=O)[O-])cc3)oc2c1` .
Response line: > 2 mM

Prompt line: Quote IC50 reported for `COC(=O)c1c(-c2ccc(O)cc2)oc2cc(OC)ccc2c1=O` please.
Response line: > 2 mM

Prompt line: Consider the molecule `COC(=O)c1c(-c2ccc([N+](=O)[O-])cc2)oc2cc(OC)ccc2c1=O` and give its recorded IC50.
Response line: > 2 mM

Prompt line: Could you please provide reported IC50 for `COC(=O)c1c(-c2ccc(OC)cc2)oc2ccccc2c1=O` ? Thanks!
Response line: > 2 mM

Prompt line: Retrieve IC50 measured for `CCOC(=O)CC(=O)c1ccccc1O` and print it.
Response line: > 2 mM

Prompt line: Given the molecule `COc1cc(OC)cc(-c2oc3ccccc3c(=O)c2C(=O)O)c1` , write its reported IC50.
Response line: > 2 mM

Prompt line: Dear colleague, please send me the reported IC50 for `COc1ccc2c(=O)c(C(=O)O)c(-c3ccc(O)cc3)oc2c1` when you can.
Response line: 1.03 mM

Where these numbers come from: BindingDB's records for doi:10.1021/jm00106a047
